Can you tell me glass transition point for the items I'm about to list?
- assay name: Glass transition temperature by DSC
- Assay type: physicochemical
- condition: 10° C./min to 300° C., second heating after quench, nitrogen gas stream
Give bare numbers, in °C.

Here's what some known entries look like.
[[record]]
chemical_structure = "Oc1ccc2c3c(ccc2c1)Oc1ccc2cc(O)ccc2c1C3c1ccc(C2c3c(ccc4cc(O)ccc34)Oc3ccc4cc(O)ccc4c32)cc1"
unit = "°C"
observed_result = 152

[[record]]
chemical_structure = "Oc1ccc2c(C(c3cccc4ccccc34)c3c(O)ccc4cc(O)ccc34)c(O)ccc2c1"
unit = "°C"
observed_result = 135

[[record]]
chemical_structure = "Oc1ccc2c(C(c3c(O)ccc4cc(O)ccc34)c3ccc4ccc5cccc6ccc3c4c56)c(O)ccc2c1"
unit = "°C"
observed_result = 140

[[record]]
chemical_structure = "Oc1ccc2c(C(c3ccc(C(c4c(O)ccc5cc(O)ccc45)c4c(O)ccc5cc(O)ccc45)cc3)c3c(O)ccc4cc(O)ccc34)c(O)ccc2c1"
unit = "°C"
observed_result = 130

[[record]]
chemical_structure = "Oc1ccc2ccc3c(c2c1)Oc1c(ccc2ccc(O)cc12)C3c1ccc(-c2ccccc2)cc1"
unit = "°C"
observed_result = 152

[[record]]
chemical_structure = "Oc1ccc2ccc(O)c(C(c3ccc(-c4ccccc4)cc3)c3c(O)ccc4ccc(O)cc34)c2c1"
unit = "°C"
observed_result = 130


Shift focus to the following entry.
Prompt: Dear colleague, I am looking for the recorded glass transition point of the following molecule: Oc1cccc2c3c(ccc12)C(c1ccc(-c2ccccc2)cc1)c1ccc2c(O)cccc2c1O3
Completion: 152

----------
- assay name: Glass transition temperature by DSC
- Format: physicochemical
- condition: 10° C./min to 300° C., second heating after quench, nitrogen gas stream
measure name: glass transition point (°C)
Give bare numbers, in °C.

Here's what some known entries look like.
[[record]]
chemical_structure = "Oc1ccc2c3c(ccc2c1)Oc1ccc2cc(O)ccc2c1C3c1cc2cccc3ccc4cccc1c4c32"
observed_result = 155

[[record]]
chemical_structure = "Oc1ccc2c(O)cccc2c1C(c1ccc(-c2ccccc2)cc1)c1c(O)ccc2c(O)cccc12"
observed_result = 130

[[record]]
chemical_structure = "OCCOc1ccc2c3c(ccc2c1)Oc1ccc2cc(OCCO)ccc2c1C3c1ccc(-c2ccccc2)cc1"
observed_result = 132

[[record]]
chemical_structure = "Oc1ccc2c3c(ccc2c1)Oc1ccc2cc(O)ccc2c1C3c1cccc2ccccc12"
observed_result = 155

[[record]]
chemical_structure = "Oc1ccc2c(C(c3ccc(-c4ccc(C(c5c(O)ccc6cc(O)ccc56)c5c(O)ccc6cc(O)ccc56)cc4)cc3)c3c(O)ccc4cc(O)ccc34)c(O)ccc2c1"
observed_result = 130

[[record]]
chemical_structure = "Oc1ccc2ccc3c(c2c1)C(c1ccc(-c2ccccc2)cc1)c1c(ccc2ccc(O)cc12)O3"
observed_result = 152


Shift focus to the following entry.
Prompt: Dear colleague, I am looking for the recorded glass transition point of the following molecule: Oc1ccc2c(C3(c4c(O)ccc5cc(O)ccc45)c4ccccc4-c4ccccc43)c(O)ccc2c1
Completion: 135

----------
- assay name: Thermal decomposition temperature by DSC
- Assay type: physicochemical
- condition: 10° C./min to 500° C., nitrogen gas stream
measure name: thermal decomposition temperature (°C)
Give bare numbers, in °C.

Here's what some known entries look like.
[[record]]
chemical_structure = "Oc1cc2ccccc2c2c1Oc1c(O)cc3ccccc3c1C2c1ccc(-c2ccccc2)cc1"
observed_result = 410

[[record]]
chemical_structure = "Oc1ccc2c3c(ccc2c1)Oc1ccc2cc(O)ccc2c1C3c1ccc(-c2ccccc2)cc1"
observed_result = 410

[[record]]
chemical_structure = "Oc1ccc2c3c(ccc2c1)Oc1ccc2cc(O)ccc2c1C3c1cc2ccccc2c2ccccc12"
observed_result = 415

[[record]]
chemical_structure = "OCCOc1ccc2c3c(ccc2c1)Oc1ccc2cc(OCCO)ccc2c1C3c1ccc(-c2ccccc2)cc1"
observed_result = 375

[[record]]
chemical_structure = "Oc1ccc2c3c(ccc2c1)Oc1ccc2cc(O)ccc2c1C3c1cc2cccc3ccc4cccc1c4c32"
observed_result = 420


Look at each molecule and report its thermal decomposition temperature.
1. Oc1ccc2c3c(ccc2c1)Oc1ccc2cc(O)ccc2c1C3c1ccc(-c2ccc(C3c4c(ccc5cc(O)ccc45)Oc4ccc5cc(O)ccc5c43)cc2)cc1
2. Oc1ccc2c3c(ccc2c1)Oc1ccc2cc(O)ccc2c1C3c1cc(C2c3c(ccc4cc(O)ccc34)Oc3ccc4cc(O)ccc4c32)cc(C2c3c(ccc4cc(O)ccc34)Oc3ccc4cc(O)ccc4c32)c1
3. Oc1cccc2c3c(ccc12)C(c1ccc(-c2ccccc2)cc1)c1ccc2c(O)cccc2c1O3

Completion:
1. 410
2. 410
3. 410

Look at each molecule and report its thermal decomposition temperature.
1. Oc1ccc2c3c(ccc2c1)Oc1ccc2cc(O)ccc2c1C31CCCCC1
2. Oc1ccc2c(C(c3c(O)ccc4cc(O)ccc34)c3cc4ccccc4c4ccccc34)c(O)ccc2c1
3. Oc1cccc2c(O)c(C(c3ccc(-c4ccccc4)cc3)c3ccc4c(O)cccc4c3O)ccc12
4. Oc1ccc2c(C(c3c(O)ccc4cc(O)ccc34)c3ccc4ccc5cccc6ccc3c4c56)c(O)ccc2c1
5. Oc1ccc2ccc(C(c3ccc(-c4ccccc4)cc3)c3ccc4ccc(O)cc4c3O)c(O)c2c1

Completion:
1: 400; 2: 255; 3: 250; 4: 260; 5: 250

----------
Can you tell me glass transition point for the items I'm about to list?
- assay name: Glass transition temperature by DSC
- Format: physicochemical
- condition: 10° C./min to 300° C., second heating after quench, nitrogen gas stream
One number for each entry, in °C.

Look at each compound and report its glass transition point.
1. Oc1ccc2ccc(C(c3ccc(-c4ccccc4)cc3)c3ccc4ccc(O)cc4c3O)c(O)c2c1
2. Oc1ccc2c3c(ccc2c1)Oc1ccc2cc(O)ccc2c1C3c1cc2ccccc2c2ccccc12
3. Oc1ccc2c3c(ccc2c1)Oc1ccc2cc(O)ccc2c1C3c1cc(C2c3c(ccc4cc(O)ccc34)Oc3ccc4cc(O)ccc4c32)cc(C2c3c(ccc4cc(O)ccc34)Oc3ccc4cc(O)ccc4c32)c1
4. Oc1cccc2c(O)c(C(c3ccc(-c4ccccc4)cc3)c3ccc4c(O)cccc4c3O)ccc12
5. Oc1cc2ccccc2c(C(c2ccc(-c3ccccc3)cc2)c2c(O)c(O)cc3ccccc23)c1O
6. Oc1ccc2c(C3(c4c(O)ccc5cc(O)ccc45)CCCCC3)c(O)ccc2c1

Completion:
130
155
152
130
130
100

Look at each compound and report its glass transition point.
1. Oc1ccc2c3c(ccc2c1)Oc1ccc2cc(O)ccc2c1C31CCCCC1
2. Oc1ccc2c3c(ccc2c1)Oc1ccc2cc(O)ccc2c1C31c2ccccc2-c2ccccc21

Completion:
140
145

Look at each compound and report its glass transition point.
1. Oc1cc2ccccc2c2c1Oc1c(O)cc3ccccc3c1C2c1ccc(-c2ccccc2)cc1
2. Oc1ccc2c(C(c3cc(C(c4c(O)ccc5cc(O)ccc45)c4c(O)ccc5cc(O)ccc45)cc(C(c4c(O)ccc5cc(O)ccc45)c4c(O)ccc5cc(O)ccc45)c3)c3c(O)ccc4cc(O)ccc34)c(O)ccc2c1
3. Oc1ccc2c(C(c3c(O)ccc4cc(O)ccc34)c3cc4ccccc4c4ccccc34)c(O)ccc2c1
4. Oc1ccc2c(C(c3ccc(-c4ccccc4)cc3)c3c(O)ccc4cc(O)ccc34)c(O)ccc2c1
5. Oc1ccc2c3c(ccc2c1)Oc1ccc2cc(O)ccc2c1C3c1ccc(-c2ccccc2)cc1

Completion:
1: 152; 2: 130; 3: 140; 4: 130; 5: 152

Look at each compound and report its glass transition point.
1. Oc1cccc2c3c(ccc12)Oc1ccc2c(O)cccc2c1C3c1ccc(-c2ccccc2)cc1
2. Oc1ccc2c3c(ccc2c1)Oc1ccc2cc(O)ccc2c1C3c1ccc(-c2ccc(C3c4c(ccc5cc(O)ccc45)Oc4ccc5cc(O)ccc5c43)cc2)cc1

Completion:
152
152

----------
- assay name: Thermal decomposition temperature by DSC
- Type: physicochemical
- condition: 10° C./min to 500° C., nitrogen gas stream
measure name: thermal decomposition temperature (°C)
Numbers only, in °C.

[[record]]
chemical_structure = "Oc1ccc2ccc3c(c2c1)C(c1ccc(-c2ccccc2)cc1)c1c(ccc2ccc(O)cc12)O3"
observed_result = 410

[[record]]
chemical_structure = "Oc1cc2ccccc2c(C(c2ccc(-c3ccccc3)cc2)c2c(O)c(O)cc3ccccc23)c1O"
observed_result = 250

[[record]]
chemical_structure = "Oc1ccc2c(C(c3ccc(-c4ccc(C(c5c(O)ccc6cc(O)ccc56)c5c(O)ccc6cc(O)ccc56)cc4)cc3)c3c(O)ccc4cc(O)ccc34)c(O)ccc2c1"
observed_result = 245


Look at each compound and report its thermal decomposition temperature.
1. Oc1ccc2c(C(c3ccc(-c4ccccc4)cc3)c3c(O)ccc4cc(O)ccc34)c(O)ccc2c1
2. Oc1ccc2c3c(ccc2c1)Oc1ccc2cc(O)ccc2c1C3c1cccc2ccccc12
3. Oc1ccc2c(C(c3ccc(C(c4c(O)ccc5cc(O)ccc45)c4c(O)ccc5cc(O)ccc45)cc3)c3c(O)ccc4cc(O)ccc34)c(O)ccc2c1
4. Oc1ccc2c(C3(c4c(O)ccc5cc(O)ccc45)CCCCC3)c(O)ccc2c1

Completion:
250
415
245
210
